All figures here come from patent US8309545B2.

Tgt: human Kv1.3 ion channel (Homo sapiens, UniProt P22001)
Construct: Human Jurkat cells (which endogenously express hKv1.3) were used in place of rat L929 cells; endogenous in cells
Sequence (P22001 whole entry): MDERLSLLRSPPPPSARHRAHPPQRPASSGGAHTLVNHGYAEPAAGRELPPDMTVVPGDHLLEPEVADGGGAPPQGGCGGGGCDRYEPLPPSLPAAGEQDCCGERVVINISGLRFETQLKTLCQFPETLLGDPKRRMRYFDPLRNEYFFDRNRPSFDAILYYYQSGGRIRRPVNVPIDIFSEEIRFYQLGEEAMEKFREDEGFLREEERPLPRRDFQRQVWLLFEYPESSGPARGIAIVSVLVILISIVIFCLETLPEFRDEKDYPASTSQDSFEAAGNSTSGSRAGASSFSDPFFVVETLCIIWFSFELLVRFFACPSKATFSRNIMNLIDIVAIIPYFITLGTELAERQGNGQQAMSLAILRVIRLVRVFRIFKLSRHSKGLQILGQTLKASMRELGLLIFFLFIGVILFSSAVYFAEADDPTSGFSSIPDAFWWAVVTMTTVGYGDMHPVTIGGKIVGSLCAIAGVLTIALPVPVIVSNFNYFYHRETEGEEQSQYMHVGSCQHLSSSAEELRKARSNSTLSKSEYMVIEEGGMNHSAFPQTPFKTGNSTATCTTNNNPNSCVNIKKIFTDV
Experimental Protocol: Inhibition of Kv1.3 currents, planar patch clamp in Jurkat cells
Study Conditions: Human Jurkat cells (endogenous hKv1.3), averaged dose response data from 3 or more cells
Binary label based on EC50 with cut-off 500 nM: below gives Met, not below gives Not met.

Before answering, review these 2 worked examples.
CC(=O)c1c(OCCOc2cnccn2)c(OCCCc2ccccc2)c2occc2c1C [Example 31b] : Met
COc1c(C(C)=O)c(OCCCNc2ccccc2)c(OC)c2occc12 [Example 12] : Not met

Does this molecule meet the criterion EC50 < 500 nM? CC(=O)c1c(OCC(=O)N2CCOCC2)c(OCCCc2ccccc2)c2occc2c1C [Example 42]
Met

Same question for COc1c(C(C)=O)c(OCCSc2ccccc2)c(OC)c2occc12 [Example 7] please.
Not met

Subsequent entry: Cc1cc(=O)c2c(C)c3ccoc3c(OCCOc3ccc(F)cc3)c2o1 [Example 43b]
Met

Also CC(=O)c1c(OCCN2CCOCC2)c(OCC(C)(C)Cc2ccccc2)c2occc2c1C [Example 56b] , if possible.
Met
